Tested on: NCI-H2405
assay.comment: relative viability (nuclei count vs DMSO), 5 days (fraction); higher = more cells survive
condition.label: first compound 0.4 µM
Label Yes when relative viability < 0.7; otherwise No.

compound	discrete.label
C[C@@H]1CN(CC(=O)Nc2ccc3c(c2)Cc2cccc(-c4cc(=O)cc(N5CCOCC5)o4)c2S3)C[C@H](C)O1 + Cc1nc(Nc2ncc(C(=O)Nc3c(C)cccc3Cl)s2)cc(N2CCN(CCO)CC2)n1 [Dasatinib] (partner 0.075 µM)	Yes
C[C@@H]1CN(CC(=O)Nc2ccc3c(c2)Cc2cccc(-c4cc(=O)cc(N5CCOCC5)o4)c2S3)C[C@H](C)O1 + CCNC(=O)c1noc(-c2cc(C(C)C)c(O)cc2O)c1-c1ccc(CN2CCOCC2)cc1 [Luminespib] (partner 0.01 µM)	No
Clc1ccc(Nc2nnc(Cc3ccncc3)c3ccccc23)cc1 [Vatalanib] + Nc1ncn([C@H]2C[C@H](O)[C@@H](CO)O2)c(=O)n1 [Decitabine] (partner 2 µM)	No
COc1cc(N2CCC(C(N)=O)CC2)ccc1Nc1nc(N)c(Cl)c(Nc2ccccc2S(=O)(=O)C(C)C)n1 [HG-5-88-01] + CS(=O)(=O)CCNCc1ccc(-c2ccc3ncnc(Nc4ccc(OCc5cccc(F)c5)c(Cl)c4)c3c2)o1 [Lapatinib] (partner 2 µM)	No
C[C@@H]1CN(CC(=O)Nc2ccc3c(c2)Cc2cccc(-c4cc(=O)cc(N5CCOCC5)o4)c2S3)C[C@H](C)O1 + O=C(c1cc(Cc2n[nH]c(=O)c3ccccc23)ccc1F)N1CCN(C(=O)C2CC2)CC1 [Olaparib] (partner 8 µM)	No
COc1cc(N2CCC(C(N)=O)CC2)ccc1Nc1nc(N)c(Cl)c(Nc2ccccc2S(=O)(=O)C(C)C)n1 [HG-5-88-01] + CC1(C)CCC(c2ccc(Cl)cc2)=C(CN2CCN(c3ccc(C(=O)NS(=O)(=O)c4ccc(N[C@H](CCN5CCOCC5)CSc5ccccc5)c(S(=O)(=O)C(F)(F)F)c4)cc3)CC2)C1 [Navitoclax] (partner 0.5 µM)	No
C[C@@H]1CN(CC(=O)Nc2ccc3c(c2)Cc2cccc(-c4cc(=O)cc(N5CCOCC5)o4)c2S3)C[C@H](C)O1 + O=C(CCCCCCC(=O)Nc1ccccc1)NO [Vorinostat] (partner 1 µM)	No
COc1cc(N2CCC(C(N)=O)CC2)ccc1Nc1nc(N)c(Cl)c(Nc2ccccc2S(=O)(=O)C(C)C)n1 [HG-5-88-01] + NC(=O)Nc1cc(-c2cccc(F)c2)sc1C(=O)N[C@H]1CCCNC1 [AZD7762] (partner 0.2 µM)	Yes
Clc1ccc(Nc2nnc(Cc3ccncc3)c3ccccc23)cc1 [Vatalanib] + O=C(c1cc(Cc2n[nH]c(=O)c3ccccc23)ccc1F)N1CCN(C(=O)C2CC2)CC1 [Olaparib] (partner 8 µM)	No
C[C@@H]1CN(CC(=O)Nc2ccc3c(c2)Cc2cccc(-c4cc(=O)cc(N5CCOCC5)o4)c2S3)C[C@H](C)O1 + CS(=O)(=O)N1CCN(Cc2cc3nc(-c4cccc5[nH]ncc45)nc(N4CCOCC4)c3s2)CC1 [Pictilisib] (partner 1 µM)	Yes
COc1cc(N2CCC(C(N)=O)CC2)ccc1Nc1nc(N)c(Cl)c(Nc2ccccc2S(=O)(=O)C(C)C)n1 [HG-5-88-01] + Cc1cc(Nc2cc(N3CCN(C)CC3)nc(Sc3ccc(NC(=O)C4CC4)cc3)n2)n[nH]1 [Tozasertib] (partner 0.1 µM)	Yes
COc1cc(N2CCC(C(N)=O)CC2)ccc1Nc1nc(N)c(Cl)c(Nc2ccccc2S(=O)(=O)C(C)C)n1 [HG-5-88-01] + COc1cc2c(Oc3ccc(NC(=O)C4(C(=O)Nc5ccc(F)cc5)CC4)cc3F)ccnc2cc1OCCCN1CCOCC1 [Foretinib] (partner 0.25 µM)	No
COc1cc(N2CCC(C(N)=O)CC2)ccc1Nc1nc(N)c(Cl)c(Nc2ccccc2S(=O)(=O)C(C)C)n1 [HG-5-88-01] + CC(=O)c1c(C)c2cnc(Nc3ccc(N4CCNCC4)cn3)nc2n(C2CCCC2)c1=O [Palbociclib] (partner 0.5 µM)	Yes
C[C@@H]1CN(CC(=O)Nc2ccc3c(c2)Cc2cccc(-c4cc(=O)cc(N5CCOCC5)o4)c2S3)C[C@H](C)O1 + COc1cccc2cc(-c3nc([C@H]4CC[C@H](C(=O)O)CC4)n4ncnc(N)c34)[nH]c12 [OSI-027] (partner 0.5 µM)	Yes
